Attribution: ChEMBL document CHEMBL5724914

COND: human gut metagenome, 24 h, 2 µM; also: call rule not given here
TEST READOUT: Bacterial Biotransformation

Some compounds with known Bacterial Biotransformation results, for comparison:
COMPOUND	TEST READOUT	REPORTED RESULT
CC(CCc1ccccc1)NCC(O)c1ccc(O)c(C(N)=O)c1 (centres undefined)	Bacterial Biotransformation	Compound NOT metabolized
CCN(CC)CCOC(=O)C1(C2CCCCC2)CCCCC1	Bacterial Biotransformation	Compound NOT metabolized
C=CC[C@@H]1/C=C(\C)C[C@H](C)C[C@H](OC)[C@H]2O[C@@](O)(C(=O)C(=O)N3CCCC[C@H]3C(=O)O[C@H](/C(C)=C/[C@@H]3CC[C@@H](O)[C@H](OC)C3)[C@H](C)[C@@H](O)CC1=O)[C@H](C)C[C@@H]2OC.O	Bacterial Biotransformation	Compound metabolized
CC(C)NCC(O)COc1ccc(CC(N)=O)cc1 (centres undefined)	Bacterial Biotransformation	Compound NOT metabolized
C[C@@H](c1ncncc1F)[C@](O)(Cn1cncn1)c1ccc(F)cc1F	Bacterial Biotransformation	Compound metabolized

Ask: Query (compound): COc1ccc(Cc2nccc3cc(OC)c(OC)cc23)cc1OC ; field requested: Bacterial Biotransformation
Reply: Compound metabolized

Ask: Returns the measured Bacterial Biotransformation for the input compound. Input: CC#CCn1c(N2CCC[C@@H](N)C2)nc2c1c(=O)n(Cc1nc(C)c3ccccc3n1)c(=O)n2C
Reply: Compound NOT metabolized

Ask: Can you share its Bacterial Biotransformation? I mean this compound: CCOc1ccccc1OCCN[C@H](C)Cc1ccc(OC)c(S(N)(=O)=O)c1.Cl [TAMSULOSIN HYDROCHLORIDE]
Reply: Compound NOT metabolized

Ask: Reported Bacterial Biotransformation, compound CN(C)CCOC(C)(c1ccccc1)c1ccccn1.O=C(O)CCC(=O)O (centres undefined) [DOXYLAMINE SUCCINATE] : ____
Reply: Compound NOT metabolized

====

ASSAY INFO: The drug is tested on WLS-027 corresponding to human gut metagenome with ENA study accession number: PRJEB37062 and ENA sample accession number: ERS12561744 for biotransformation under anaerobic condition. The drug concentrations were measured over 9 timepoints collected between 0 and 24 hours of incubation by liquid-chromatography-coupled mass spectrometry (LC–MS)
COND: 2 µM
TEST READOUT: Bacterial Biotransformation

Field: example entries. Status: answers known.
COMPOUND	Bacterial Biotransformation
C[C@]12C=CC(=O)C=C1CC[C@@H]1[C@@H]2C(=O)C[C@@]2(C)[C@H]1CC[C@]2(O)C(=O)CO	Compound metabolized
Clc1cccc(Cl)c1N=C1NCCN1	Compound NOT metabolized
OCCN(CCO)c1nc(N2CCCCC2)c2nc(N(CCO)CCO)nc(N3CCCCC3)c2n1	Compound metabolized
C[N+]12CCC(CC1)C(OC(=O)C(O)(c1ccccc1)c1ccccc1)C2.[Br-] (stereo unspecified) [CLIDINIUM BROMIDE]	Compound NOT metabolized
CCc1cccc2c3c([nH]c12)C(CC)(CC(=O)O)OCC3 (stereo unspecified)	Compound metabolized

Ask: Look up Bacterial Biotransformation: Nc1nc(N)nc(-c2cc(Cl)ccc2Cl)n1.O=C(O)/C=C\C(=O)O [IRSOGLADINE MALEATE]
Reply: Compound NOT metabolized

Ask: Endpoint output: Bacterial Biotransformation of O=C(CCCN1CCC2(CC1)C(=O)NCN2c1ccccc1)c1ccc(F)cc1 . Value?
Reply: Compound NOT metabolized

Ask: Which Bacterial Biotransformation is listed for CCS(=O)(=O)CCn1c([N+](=O)[O-])cnc1C ?
Reply: Compound metabolized

Ask: Need Bacterial Biotransformation of CCN(C(C)=O)c1cccc(-c2ccnc3c(C#N)cnn23)c1 , thanks.
Reply: Compound metabolized

Ask: Return reported Bacterial Biotransformation; argument: CC(NC(C)(C)C)C(=O)c1cccc(Cl)c1 (stereo unspecified)
Reply: Compound NOT metabolized
